Assay: Metabolic stability in human liver microsomes assessed as half life at 0.5 uM in presence of NADPH by LC-MS/MS analysis
Type: ADME, Microsome
QUANTITY NAME: half-life at 0.5 µM (min)
Kindly answer with a numeric value in min, unit omitted.

C=C(C)[C@@H]1CC[C@]2(NCC[C@]3(O)CC[C@@H](S(C)(=O)=O)CC3)CC[C@]3(C)[C@H](CC[C@@H]4[C@@]5(C)CC=C(C6=CC[C@](CF)(C(=O)O)CC6)C(C)(C)[C@@H]5CC[C@]43C)[C@@H]12 :: 83

Attention now turns to another entry.
INPUT: # lookup: half-life at 0.5 µM of C=C(C)[C@@H]1CC[C@]2(NCCN3CCS(=O)(=O)CC3)CC[C@]3(C)[C@H](CC[C@@H]4[C@@]5(C)CC=C(C6=CC[C@@](CF)(C(=O)O)CC6)C(C)(C)[C@@H]5CC[C@]43C)[C@@H]12
OUTPUT: 110

Each recorded value in this set is attributed to ChEMBL document CHEMBL5236606.
